# target desc: NanH-D237A (Tannerella forsythia, UniProt G8UIQ1, D224A)
# Construct: gene BFO_2207; C-terminally hexahistidine-tagged NanH
# procedure details: crystal structure ([…] soak, […] Å) and tryptophan fluorescence quenching
# Format: binding
endpoint: pKd
pKd here: minus log base 10 of the concentration, concentration in moles per litre.

Note to self: pKd recorded for CC(=O)N[C@H]1[C@H]([C@H](O)[C@H](O)CO)O[C@@](OC[C@H]2O[C@@H](O[C@H]3[C@H](O)[C@@H](O)C(O)O[C@@H]3CO)[C@H](O)[C@@H](O)[C@H]2O)(C(=O)O)C[C@@H]1O (stereo partly shown) was 3.87

Entry source: paper PMC9472817
